target: PTPN2 (Mus musculus, UniProt Q06180); construct: HiBiT; host or cells: B16F10.4; experiment: HiBiT PTPN2 degradation in B16F10.4 cells, 24 hours; type: cell-based
A collection of molecules and their measured DC50

{"columns": ["molecule", "measured_target", "DC50"],
 "data": [
  ["Cn1c(=O)n(C2CCC(=O)NC2=O)c2ccc(-c3ccc(CC(=O)Nc4ccc5c(F)c(N6CC(=O)NS6(=O)=O)c(O)cc5c4)c(F)c3)cc21 (stereo not drawn)", "PTPN2 (Mus musculus, UniProt Q06180)", "50 to 150 nM"],
  ["Cn1cc(N2CCC(=O)NC2=O)c2cc(F)c(-c3ccc(CC(=O)Nc4ccc5c(F)c(N6CC(=O)NS6(=O)=O)c(O)cc5c4)cc3)cc21", "PTPN2 (Mus musculus, UniProt Q06180)", "150 to 500 nM"],
  ["Cn1c(=O)n(C2CCC(=O)NC2=O)c2ccc(Nc3ccn(CC(=O)Nc4ccc5c(F)c(N6CC(=O)NS6(=O)=O)c(O)cc5c4)n3)cc21 (stereo not drawn)", "PTPN2 (Mus musculus, UniProt Q06180)", "50 to 150 nM"]
]}

* * *

Biological target: PTPN2 (Mus musculus, UniProt Q06180)
Construct: HiBiT; host or cells: B16F10.4
Sequence (Q06180 1-406): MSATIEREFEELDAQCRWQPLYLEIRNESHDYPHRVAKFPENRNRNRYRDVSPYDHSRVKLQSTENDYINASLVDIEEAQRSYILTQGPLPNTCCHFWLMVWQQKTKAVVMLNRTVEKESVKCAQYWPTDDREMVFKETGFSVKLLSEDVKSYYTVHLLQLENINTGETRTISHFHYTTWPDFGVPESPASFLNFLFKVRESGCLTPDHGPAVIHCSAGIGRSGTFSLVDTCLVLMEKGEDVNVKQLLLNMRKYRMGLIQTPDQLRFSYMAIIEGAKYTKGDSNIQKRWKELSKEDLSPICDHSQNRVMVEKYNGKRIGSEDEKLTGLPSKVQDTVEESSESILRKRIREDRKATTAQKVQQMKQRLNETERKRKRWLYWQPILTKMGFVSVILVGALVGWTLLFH
Experiment: HiBiT PTPN2 degradation in B16F10.4 cells, 24 hours
Type: cell-based

{"columns": ["molecule", "DC50"],
 "data": [
  ["Cc1nn(CC(=O)Nc2ccc3c(F)c(N4CC(=O)NS4(=O)=O)c(O)cc3c2)c2ccc(-c3ccc4c(c3)n(C)c(=O)n4C3CCC(=O)NC3=O)cc12 (stereo not shown)", "< 50 nM"],
  ["Cc1nn(CC(=O)Nc2ccc3c(F)c(N4CC(=O)NS4(=O)=O)c(O)cc3c2)c(C)c1-c1ccc2c(C3CCC(=O)NC3=O)nn(C)c2c1 (stereo not shown)", "< 50 nM"],
  ["Cn1c(=O)n(C2CCC(=O)NC2=O)c2ccc(N3CCCC(CC(=O)Nc4ccc5c(F)c(N6CC(=O)NS6(=O)=O)c(O)cc5c4)CC3)cc21 (stereo not shown)", "150 to 500 nM"],
  ["Cn1c(=O)n(C2CCC(=O)NC2=O)c2ccc(-c3ccc([C@@H](CO)C(=O)Nc4ccc5c(F)c(N6CC(=O)NS6(=O)=O)c(O)cc5c4)cc3)cc21 (stereo partly shown)", "< 50 nM"],
  ["Cn1c(=O)n(C2CCC(=O)NC2=O)c2ccc(N3CCC(O)(CC(=O)N4CC[C@@H](c5ccc6cc(O)c(N7CC(=O)NS7(=O)=O)c(F)c6c5)C4)CC3)cc21 (stereo partly shown)", "≥ 500 nM"],
  ["CCn1c(=O)n(C2CCC(=O)NC2=O)c2ccc([C@@H]3CCN(CC(=O)Nc4ccc5c(F)c(N6CC(=O)NS6(=O)=O)c(O)cc5c4)C[C@H]3F)cc21 (stereo partly shown)", "≥ 500 nM"],
  ["O=C(CCC(=O)Nc1ccc2c(F)c(N3CC(=O)NS3(=O)=O)c(O)cc2c1)NCc1ccc2c3c(cccc13)C(=O)N2C1CCC(=O)NC1=O (stereo not shown)", "≥ 500 nM"],
  ["Cn1c(=O)n(C2CCC(=O)NC2=O)c2ccc(N3CCC(CC(=O)Nc4ccc5c(F)c(N6CC(=O)NS6(=O)=O)c(O)cc5c4)CC3)cc21 (stereo not shown) [Degrader 19]", "50 to 150 nM"],
  ["Cn1c(=O)n(C2CCC(=O)NC2=O)c2ccc(C3CCN(CC4CC(C(=O)Nc5ccc6c(F)c(N7CC(=O)NS7(=O)=O)c(O)cc6c5)C4)CC3)cc21 (stereo not shown)", "50 to 150 nM"],
  ["Cn1c(=O)n(C2CCC(=O)NC2=O)c2ccc3c(c21)CCCN3CCCC(=O)Nc1ccc2c(F)c(N3CC(=O)NS3(=O)=O)c(O)cc2c1 (stereo not shown)", "≥ 500 nM"],
  ["Cn1c(=O)n(C2CCC(=O)NC2=O)c2ccc(-c3ccc(CC(=O)Nc4ccc5c(F)c(N6CC(=O)NS6(=O)=O)c(O)cc5c4)cc3)nc21 (stereo not shown)", "50 to 150 nM"],
  ["Cn1nc(N2CCC(=O)NC2=O)c2cc(F)c(N3CCC(CC(=O)Nc4ccc5c(F)c(N6CC(=O)NS6(=O)=O)c(O)cc5c4)CC3)cc21 [Degrader 129]", "150 to 500 nM"],
  ["O=C1CCC(n2c3ccc(CCCCNC(=O)Nc4ccc5c(F)c(N6CC(=O)NS6(=O)=O)c(O)cc5c4)cc3c3cccnc32)C(=O)N1 (stereo not shown)", "≥ 500 nM"]
]}

meta.source: patent US20240424111A1
